- Tested on: T. foetus
- test-details: Medium-throughput (MTS) confirmatory dose-response growth assay, T. foetus
- Type: cell-based, Tritrichomonas foetus
- test-context: Tritrichomonas foetus; 96-well, 10,000 cells/mL in 50 μL, 48 h, mean ± SEM; >10 = no appreciable activity at highest dose
- Description: For microtiter plate assays, trichomonads were grown in anaerobic conditions within GasPak EZ anaerobe pouches with fresh anaerobic sachets. […] Chromogen absorbance was monitored at 570 nm on an absorbance microplate reader after plates were allowed to equilibrate in atmospheric conditions at room temperature for at least 5 min. After absorbances were measured, data were processed as followed unless indicated otherwise in the text. […]
observation-type: IC50 (µM)
Answers are plain numbers, in µM.

These recorded examples may help you get a feel for the data.
| compound | measured-on | observation-type | unit-abbreviation | measured |
| --- | --- | --- | --- | --- |
| N#Cc1cn([C@@H]2O[C@H](CO)[C@@H](O)[C@H]2O)c2ncnc(N)c12 [Toyocamycin, toyocamycin, reference compound] | T. foetus | IC50 | µM | 2.4 |
| O=[N+]([O-])c1ncc[nH]1 | T. foetus | IC50 | µM | 8.6 |
| Cc1ncc([N+](=O)[O-])n1CCO | T. foetus | IC50 | µM | 1.2 |
| CO[C@@H]1[C@H](OC(=O)/C=C/C=C/C=C/C=C/C(=O)O)CC[C@]2(CO2)[C@H]1[C@@]1(C)O[C@@H]1CC=C(C)C [Fumagillin, fumagillin, reference compound] | T. foetus | IC50 | µM | 0.18 |

Kindly review the next compound as well.
Entry `CCC(=O)CCCCC[C@@H]1NC(=O)[C@H]2CCCCN2C(=O)[C@H]([C@@H](C)CC)NC(=O)[C@H](Cc2cn(OC)c3ccccc23)NC1=O` , IC50 reported as 1.9

* * *

- System: Trichomonas vaginalis G3 trophozoites
- test-context: parasite screen at 1 µg/mL, replicate 2
observation-type: T.vaginalis_%inb_Rep2 (%)
Numbers only, in %.

These recorded examples may help you get a feel for the data.
| compound | observation-type | unit-abbreviation | measured |
| --- | --- | --- | --- |
| CC[C@H]1OC(=O)[C@H](C)[C@@H](O[C@H]2C[C@@](C)(OC)[C@@H](O)[C@H](C)O2)[C@H](C)[C@@H](O[C@@H]2O[C@H](C)C[C@H](N(C)C)[C@H]2O)[C@](C)(O)C[C@@H](C)/C(=N\OCOCCOC)[C@H](C)[C@@H](O)[C@]1(C)O | T.vaginalis_%inb_Rep2 | % | 5.85 |
| CC[C@H]1C[C@@H]2CC[C@@H](O2)[C@@H](C)C(=O)O[C@H](CC)C[C@H]2CC[C@H](O2)[C@H](C)C(=O)O[C@@H](CC)C[C@@H]2CC[C@@H](O2)[C@@H](C)C(=O)O[C@H](CC)C[C@H]2CC[C@H](O2)[C@H](C)C(=O)O1 | T.vaginalis_%inb_Rep2 | % | 15.05 |

For each listed entry, give its T.vaginalis_%inb_Rep2.
1. CC(=O)Nc1c2sscc-2n(C)c1=O
2. C=C[C@@](C)(CCC=C(C)C)c1ccc2c3c(c[nH]c13)C[C@@H](CO)NC(=O)[C@H](C(C)C)N2C
3. COC1=C(N)C(=O)c2nc(-c3nc(C(=O)O)c(C)c(-c4ccc(OC)c(OC)c4O)c3N)ccc2C1=O
4. CO[C@H]1[C@H](O)[C@@H](O)[C@H](n2c3c(Cl)cccc3c3c4c(c5c6cccc(Cl)c6[nH]c5c32)C(=O)NC4=O)O[C@@H]1CO
5. CCCCCCCCCCCCCC(=O)N[C@H]1CCOC1=O

Response:
[97.56, 16.64, 90.80, 13.95, 13.16]

For each listed entry, give its T.vaginalis_%inb_Rep2.
1. CCCCCCCCCCCC[C@@H](C(=O)O)[C@H](C)C(=O)O
2. CCCCCCCCCCC[C@@H](C[C@@H]1OC(=O)[C@H]1CCCCCC)OC(=O)[C@H](CC(C)C)NC=O
3. CC1=C[C@H]2O[C@@H]3[C@H](O)[C@@H](O)[C@](C)([C@@]2(CO)C[C@@H]1OC(=O)CC(C)C)[C@]31CO1
4. O=C1C=C2C=C[C@@H]3C[C@@]2(O1)[C@H]1CCCCN31
5. O=C1NCc2nc3ccccc3c(=O)n2-c2ccccc21
6. CN(C)[C@@H]1C(O)=C(C(N)=O)C(=O)[C@@]2(O)C(O)=C3C(=O)c4c(O)cccc4[C@@](C)(O)[C@H]3C[C@@H]12

Response:
1: 5.71; 2: 19.44; 3: 12.37; 4: 10.30; 5: 12.61; 6: 5.48
